- Study System: Neuronal acetylcholine receptor; alpha4/beta2 (Rattus norvegicus, UniProt P09483+P12390)
- Sequence (P09483 whole entry): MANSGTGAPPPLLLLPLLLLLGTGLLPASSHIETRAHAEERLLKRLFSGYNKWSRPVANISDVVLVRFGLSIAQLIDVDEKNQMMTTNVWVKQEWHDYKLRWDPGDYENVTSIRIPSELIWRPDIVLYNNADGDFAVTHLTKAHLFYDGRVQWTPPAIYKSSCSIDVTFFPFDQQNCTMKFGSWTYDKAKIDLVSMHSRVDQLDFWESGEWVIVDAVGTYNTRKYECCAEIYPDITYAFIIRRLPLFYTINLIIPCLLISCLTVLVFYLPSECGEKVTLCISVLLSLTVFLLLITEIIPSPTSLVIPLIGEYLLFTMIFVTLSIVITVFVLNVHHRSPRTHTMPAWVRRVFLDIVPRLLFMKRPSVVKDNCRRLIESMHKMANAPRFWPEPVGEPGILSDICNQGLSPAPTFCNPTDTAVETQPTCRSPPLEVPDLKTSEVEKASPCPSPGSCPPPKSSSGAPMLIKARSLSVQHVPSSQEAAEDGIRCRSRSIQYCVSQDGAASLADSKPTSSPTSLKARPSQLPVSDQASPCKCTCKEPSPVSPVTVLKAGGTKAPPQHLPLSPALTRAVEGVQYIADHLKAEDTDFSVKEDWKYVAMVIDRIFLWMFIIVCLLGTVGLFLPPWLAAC
- Sequence (P12390 whole entry): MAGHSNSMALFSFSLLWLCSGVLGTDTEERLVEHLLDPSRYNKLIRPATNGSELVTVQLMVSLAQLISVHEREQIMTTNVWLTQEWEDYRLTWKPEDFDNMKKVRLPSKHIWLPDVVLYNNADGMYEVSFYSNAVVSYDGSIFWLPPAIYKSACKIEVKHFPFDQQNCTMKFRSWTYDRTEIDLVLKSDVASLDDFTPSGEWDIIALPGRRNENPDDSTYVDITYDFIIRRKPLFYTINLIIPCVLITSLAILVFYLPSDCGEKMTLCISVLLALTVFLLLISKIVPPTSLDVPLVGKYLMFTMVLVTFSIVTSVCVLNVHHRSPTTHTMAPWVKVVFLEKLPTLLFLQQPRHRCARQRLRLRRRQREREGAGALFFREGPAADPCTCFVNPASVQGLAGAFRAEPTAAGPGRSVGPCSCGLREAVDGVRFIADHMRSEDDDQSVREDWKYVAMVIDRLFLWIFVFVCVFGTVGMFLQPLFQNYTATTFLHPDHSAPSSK
- Assay: Displacement of [3H]epibatidine from alpha4beta2 nAChR in Sprague-Dawley rat brain cortical membrane after 3 hrs
Below is a list of entries, each paired with its recorded Ki value.

> print(dat)
                      molecule  reported
1   CN[C@H](C)Cc1ccc2c(c1)OCO2   0.63 µM
2  CN[C@@H](C)Cc1ccc2c(c1)OCO2   8.21 µM

Now for a further molecule.
Request: Given the molecule CNC(C)Cc1ccc2c(c1)OCO2 (racemic) [MIDOMAFETAMINE] , what is its reported Ki?
Response: 1.44 µM
